area under the viability dose-response curve listing for selected compounds.
# System: 135F2 (fetal-II hepatoblastoma organoid with high liver markers)
# assay.comment: area under the viability dose-response curve (AUC) (AUC (arbitrary units, max 500 = no viability loss)); higher = less sensitive (higher viability)
# experimental.conditions: exposure time: 120 h; concentration range: 0.1 nM - 10 µM, 6 doses
attribute.measured: area under the viability dose-response curve

1) O=C(CCCCCCC(=O)Nc1ccccc1)NO :: 408
2) CN(C)C/C=C/C(=O)Nc1ccc(C(=O)Nc2cccc(Nc3ncc(Cl)c(-c4c[nH]c5ccccc45)n3)c2)cc1 :: 314
3) COc1cc(OC)cc(N(CCNC(C)C)c2ccc3ncc(-c4cnn(C)c4)nc3c2)c1 :: 496
4) Cn1cnc2c(F)c(Nc3ccc(Br)cc3Cl)c(C(=O)NOCCO)cc21 :: 430
5) COCC[n+]1c2c(n(Cc3cnccn3)c1C)C(=O)c1ccccc1C2=O [Sepantronium bromide] :: 427
6) CCN(c1cc(-c2ccc(CN3CCOCC3)cc2)cc(C(=O)NCc2c(C)cc(C)[nH]c2=O)c1C)C1CCOCC1 :: 473

###

area under the viability dose-response curve listing for selected compounds.
# Tested on: 17F1 (fetal-I hepatoblastoma organoid with intermediate liver markers)
# assay.comment: area under the viability dose-response curve (AUC) (AUC (arbitrary units, max 500 = no viability loss)); higher = less sensitive (higher viability)
# experimental.conditions: exposure time: 120 h; concentration range: 0.1 nM - 10 µM, 6 doses
attribute.measured: area under the viability dose-response curve

1) CNC(=O)c1ccccc1Sc1ccc2c(/C=C/c3ccccn3)n[nH]c2c1 [Axitinib] :: 499
2) S=c1nc[nH]c2nc[nH]c12 [6-Mercaptopurine] :: 451
3) CCC(CC)(NC(=O)C(C)C)C(=O)N[C@@H](CCCN=C(N)N)C(=O)NC1(C(=O)NC(c2ccc(F)cc2)c2ccc(F)cc2)CCCC1 [MM102] :: 486
4) CCOC(=O)CCNc1cc(N2CCc3ccccc3CC2)nc(-c2ccccn2)n1 [GSK J4] :: 483
5) CC[C@]1(O)C[C@H]2CN(CCc3c([nH]c4ccccc34)[C@@](C(=O)OC)(c3cc4c(cc3OC)N(C=O)[C@H]3[C@@](O)(C(=O)OC)[C@H](OC(C)=O)[C@]5(CC)C=CCN6CC[C@]43[C@@H]65)C2)C1 [Vincristine] :: 180
6) C[C@@H]1C[C@H]2[C@@H]3CCC4=CC(=O)C=C[C@]4(C)[C@@]3(F)[C@@H](O)C[C@]2(C)[C@@]1(O)C(=O)CO [Dexamethasone] :: 477
7) CNC(=O)c1ccc(Nc2ncc(C(F)(F)F)c(NCc3nccnc3N(C)S(C)(=O)=O)n2)cc1 [Defactinib] :: 466
8) CCCS(=O)(=O)Nc1ccc(F)c(C(=O)c2c[nH]c3ncc(-c4ccc(Cl)cc4)cc23)c1F [Vemurafenib] :: 499
9) CC[C@@]1(O)C(=O)OCc2c1cc1n(c2=O)Cc2cc3c(CN(C)C)c(O)ccc3nc2-1 [Topotecan] :: 319
10) CCn1c(-c2nonc2N)nc2cnc(Oc3cccc(NC(=O)c4ccc(OCCN5CCOCC5)cc4)c3)cc21 :: 451
11) CN1CC[C@@H](NC(=O)Nc2ccc(C#N)cc2)C[C@@H]1c1nc2ccccc2[nH]1 [Glasdegib] :: 497
12) C[C@@H](c1ccc2nccn2c1)n1nnc2ncc(-c3cnn(C)c3)nc21 [Savolitinib] :: 489
13) CN(C)C(=N)NC(=N)N [Metformin] :: 482
14) C#Cc1cccc(Nc2ncnc3cc4c(cc23)OCCOCCOCCO4)c1 [Icotinib] :: 465
15) O=P(O)(NCCCl)NCCCl [Palifosfamide (Ifosfamide)] :: 477
16) Nc1ccccc1NC(=O)c1ccc(CNC(=O)OCc2cccnc2)cc1 [Entinostat] :: 434
17) CC[C@H](Nc1nc(NCc2cnc(C)cc2C)c2ncn(C(C)C)c2n1)[C@@H](C)O [CYC065] :: 366
18) CO[C@H]1C[C@@H]2CC[C@@H](C)[C@@](O)(O2)C(=O)C(=O)N2CCCC[C@H]2C(=O)O[C@H]([C@H](C)C[C@@H]2CC[C@@H](OC(=O)C(C)(CO)CO)[C@H](OC)C2)CC(=O)[C@H](C)/C=C(\C)[C@@H](O)[C@@H](OC)C(=O)[C@H](C)C[C@H](C)/C=C/C=C/C=C/1C [Temsirolimus] :: 471
19) CN[C@@H](C)C(=O)N[C@H]1CN(C(=O)CC(C)C)CC[C@H]2CC[C@@H](C(=O)NC(c3ccccc3)c3ccccc3)N2C1=O [Xevinapant] :: 489
20) Cc1[nH]c2ccccc2c1CCNCc1ccc(/C=C/C(=O)NO)cc1 [Panobinostat] :: 271
21) C=CC(=O)N1C[C@H](Nc2ncnc3[nH]ccc23)CC[C@@H]1C :: 488
22) COc1cc(N2CCC(N3CCN(C)CC3)CC2)ccc1Nc1ncc(Cl)c(Nc2ccccc2P(C)(C)=O)n1 [Brigatinib] :: 426
23) COc1cc2c(Oc3ccc4[nH]c(C)cc4c3F)ncnc2cc1OCCCN1CCCC1 [Cediranib] :: 459
24) CC(C)C[C@H](NC(=O)[C@H](CCc1ccccc1)NC(=O)CN1CCOCC1)C(=O)N[C@@H](Cc1ccccc1)C(=O)N[C@@H](CC(C)C)C(=O)[C@@]1(C)CO1 [Carfilzomib] :: 269
25) CNC(=O)c1cccc(-c2ccc3c(N4CCOC[C@@H]4C)nc(N4CCOC[C@@H]4C)nc3n2)c1 [Vistusertib] :: 498
26) N#CC[C@H](C1CCCC1)n1cc(-c2ncnc3[nH]ccc23)cn1 [Ruxolitinib] :: 478
